Where these numbers come from: paper PMC12332667

% AcCN (acetonitrile required for elution from the column) by entry:
experiment: Hydrophobicity by reverse-phase chromatography; assay type: physicochemical; conditions: acetonitrile content in the mobile phase at the retention time
Residues, ends and D or L forms follow the SMILES beside them.
PARAMETER MEASURED: % AcCN (acetonitrile required for elution from the column) (%)

MOLECULE	NUMBER
CC(C)[C@@H](CNC(=O)/C=C/c1ccccc1)NC(=O)[C@H](Cc1c[nH]cn1)NC(=O)[C@H](CCCCN)NC(=O)OCc1ccccc1	42.9
CC(C)C[C@H](NC(=O)[C@H](CCCNC(=N)N)NC(=O)OCc1ccccc1)C(=O)N[C@H](CN)C(C)C	42.5
CC(C)[C@H](NC(=O)[C@H](CCCNC(=N)N)NC(=O)[C@H](CCCNC(=N)N)NC(=O)OCc1ccccc1)C(=O)NCCc1ccccc1 [Compound A-221] (HELM PEPTIDE1{[O=C(OCc1ccccc1)[*:2]].R.R.V.[c1ccc(CCN[*:1])cc1]}$$$$V2.0)	43.9
CC[C@@H](CNC(=O)/C=C/c1ccccc1)NC(=O)[C@H](CC(C)C)NC(=O)[C@H](CCCNC(=N)N)NC(=O)OCc1ccccc1	54.6
CC(C)[C@H](NC(=O)[C@H](Cc1c[nH]cn1)NC(=O)[C@H](CCCCN)NC(=O)OCc1ccccc1)C(=O)NCCc1ccccc1 [Compound A-220] (HELM PEPTIDE1{[O=C(OCc1ccccc1)[*:2]].K.H.V.[c1ccc(CCN[*:1])cc1]}$$$$V2.0)	42.4
CC(C)[C@H](NC(=O)[C@H](Cc1c[nH]cn1)NC(=O)[C@H](CCCNC(=N)N)NC(=O)OCc1ccccc1)C(=O)NCCc1ccccc1 [Compound A-219] (HELM PEPTIDE1{[O=C(OCc1ccccc1)[*:2]].R.H.V.[c1ccc(CCN[*:1])cc1]}$$$$V2.0)	42.6

* * *

MBC by entry:
system: S. pyogenes ATCC 19615; assay: MIC/MBC broth microdilution, S. pyogenes; type: cell-based, Streptococcus pyogenes; details: S. pyogenes, water additive EtOH
Residues, ends and D or L forms follow the SMILES beside them.
PARAMETER MEASURED: MBC

COMPOUND	PARAMETER MEASURED	RESULT
CC(C)[C@@H](CNC(=O)C(=Cc1ccccc1)c1ccccc1)NC(=O)[C@H](Cc1c[nH]cn1)NC(=O)[C@H](CCCNC(=N)N)NC(=O)OCc1ccccc1 [Compound A-176]	MBC	32 µg/mL
CC(C)[C@@H](CNC(=O)C(=Cc1ccccc1)c1ccccc1)NC(=O)[C@H](CCCNC(=N)N)NC(=O)[C@H](CCCNC(=N)N)NC(=O)OCc1ccccc1 [Compound A-179]	MBC	32 µg/mL
CC(C)C[C@H](NC(=O)[C@H](CCCNC(=N)N)NC(=O)OCc1ccccc1)C(=O)N[C@H](C(=O)NCCc1ccccc1)C(C)C [Compound A-196] (HELM PEPTIDE1{[O=C(OCc1ccccc1)[*:2]].R.L.V.[c1ccc(CCN[*:1])cc1]}$$$$V2.0)	MBC	256 µg/mL
CC(C)C[C@H](NC(=O)[C@H](CCCNC(=N)N)NC(=O)OCc1ccccc1)C(=O)N[C@H](CNC(=O)C(=Cc1ccccc1)c1ccccc1)C(C)C [Compound A-164]	MBC	8 µg/mL
CC(C)[C@@H](CNC(=O)C(=Cc1ccccc1)c1ccccc1)NC(=O)[C@H](Cc1c[nH]cn1)NC(=O)[C@H](CCCCNC(=N)N)NC(=O)OCc1ccccc1 [Compound A-193]	MBC	16 µg/mL

* * *

system: S. schleiferi c.i.; assay: MIC/MBC broth microdilution, S. schleiferi; assay type: cell-based, Staphylococcus schleiferi; settings: H2O
MBC by entry:
PARAMETER MEASURED: MBC (µg/mL)

In [3]: df
Out[3]:
                              line_notation  parameter_measured  measure_unit  number
0  CC(C)[C@@H](CNC(=O)C(=Cc1ccccc1)c1ccccc1)NC(=O)[C@H](CCCNC(=N)N)NC(=O)[C@H](CCCCNC(=N)N)NC(=O)OCc1ccccc1                 MBC         µg/mL     256
1  CC[C@@H](CNC(=O)/C=C/c1ccccc1)NC(=O)[C@H](CC(C)C)NC(=O)[C@H](CCCNC(=N)N)NC(=O)OCc1ccccc1                 MBC         µg/mL      32
2  Cc1ccccc1COC(=O)N[C@@H](CCCNC(=N)N)C(=O)N[C@@H](CC(C)C)C(=O)N[C@H](CNC(=O)/C=C/c1ccccc1)C(C)C                 MBC         µg/mL       8

* * *

system: P. aeruginosa ATCC 10145; assay: MIC/MBC broth microdilution, P. aeruginosa; type: cell-based; details: water additive DMSO
Non-standard residues stand in square brackets, D forms with d. Residues, ends and D or L forms follow the SMILES beside them. *: point of attachment. NHPhenethyl = c1ccc(CCN*)cc1; β3hV = CC(C)[C@H](N)CC(=O)O; Cbz = O=C(OCc1ccccc1)*
MIC by entry:
PARAMETER MEASURED: MIC

COMPOUND	RESULT
Cc1ccccc1COC(=O)N[C@@H](CCCNC(=N)N)C(=O)N[C@@H](CC(C)C)C(=O)N[C@H](CNC(=O)/C=C/c1ccccc1)C(C)C	512 µg/mL
CC(C)C[C@H](NC(=O)[C@H](CCCNC(=N)N)NC(=O)OCc1ccccc1)C(=O)N[C@H](CNC(=O)/C=C/c1ccccc1)C(C)C	> 512 µg/mL
CC(C)C[C@H](NC(=O)[C@H](CCCNC(=N)N)NC(=O)OCc1ccccc1)C(=O)N[C@H](CC(=O)NCCc1ccccc1)C(C)C [Compound A-152] (Cbz-Arg-Leu-[β3hV]-NHPhenethyl)	> 512 µg/mL
CC(C)C[C@H](NC(=O)[C@H](CCCCNC(=N)N)NC(=O)OCc1ccccc1)C(=O)N[C@H](CNC(=O)/C=C/c1ccccc1)C(C)C	> 512 µg/mL
C=CCC(=O)NC[C@@H](NC(=O)[C@H](CC(C)C)NC(=O)[C@H](CCCNC(=N)N)NC(=O)OCc1ccccc1)C(C)C	> 512 µg/mL
CC(C)[C@@H](CNC(=O)C(=Cc1ccccc1)c1ccccc1)NC(=O)[C@H](Cc1c[nH]cn1)NC(=O)[C@H](CCCNC(=N)N)NC(=O)OCc1ccccc1	256 µg/mL

* * *

system: E. faecalis c.i.; experiment: MIC/MBC broth microdilution, E. faecalis; assay type: cell-based, Enterococcus faecalis; conditions: water additive DMSO
Non-standard residues stand in square brackets, D forms with d. Residues, ends and D or L forms follow the SMILES beside them. *: point of attachment. NHPhenethyl = c1ccc(CCN*)cc1; β3hV = CC(C)[C@H](N)CC(=O)O; Cbz = O=C(OCc1ccccc1)*
MBC by entry:

COMPOUND	TGT	MEASURE UNIT	VALUE QUALIFIER	MBC
CC(C)C[C@H](NC(=O)[C@H](CCCNC(=N)N)NC(=O)OCc1ccccc1)C(=O)N[C@H](CC(=O)NCCc1ccccc1)C(C)C [Compound A-152] (Cbz-Arg-Leu-[β3hV]-NHPhenethyl)	E. faecalis c.i.	µg/mL	>	512
CC(C)C[C@H](NC(=O)[C@H](CCCCNC(=N)N)NC(=O)OCc1ccccc1)C(=O)N[C@H](CNC(=O)/C=C/c1ccccc1)C(C)C	E. faecalis c.i.	µg/mL	=	512
CC(C)[C@@H](CNC(=O)C(=Cc1ccccc1)c1ccccc1)NC(=O)[C@H](CCCNC(=N)N)NC(=O)[C@H](CCCCN)NC(=O)OCc1ccccc1	E. faecalis c.i.	µg/mL	>	512
CC(C)C[C@H](NC(=O)[C@H](CCCNC(=N)N)NC(=O)OCc1ccccc1)C(=O)N[C@H](CNC(=O)C(=Cc1ccccc1)c1ccccc1)C(C)C	E. faecalis c.i.	µg/mL	=	32
CC(C)C[C@H](NC(=O)[C@H](CCCNC(=N)N)NC(=O)OCc1ccccc1)C(=O)N[C@H](CNC(=O)/C=C/c1ccccc1)C(C)C	E. faecalis c.i.	µg/mL	=	256

* * *

MBC by entry:
test system: S. mutans c.i.; assay: MIC/MBC broth microdilution, S. mutans; type: cell-based, Streptococcus mutans; details: H2O
Residues, ends and D or L forms follow the SMILES beside them.

COMPOUND	MBC / µg/mL
CC(C)C[C@H](NC(=O)[C@H](CCCNC(=N)N)NC(=O)OCc1ccccc1)C(=O)N[C@H](C(=O)NCCc1ccccc1)C(C)C [Compound A-196] (HELM PEPTIDE1{[O=C(OCc1ccccc1)[*:2]].R.L.V.[c1ccc(CCN[*:1])cc1]}$$$$V2.0)	256
CC[C@@H](CNC(=O)/C=C/c1ccccc1)NC(=O)[C@H](CC(C)C)NC(=O)[C@H](CCCNC(=N)N)NC(=O)OCc1ccccc1	8
C=CCC(=O)NC[C@@H](NC(=O)[C@H](CC(C)C)NC(=O)[C@H](CCCNC(=N)N)NC(=O)OCc1ccccc1)C(C)C	256
CC(C)[C@H](NC(=O)[C@H](Cc1c[nH]cn1)NC(=O)[C@H](CCCCN)NC(=O)OCc1ccccc1)C(=O)NCCc1ccccc1 [Compound A-220] (HELM PEPTIDE1{[O=C(OCc1ccccc1)[*:2]].K.H.V.[c1ccc(CCN[*:1])cc1]}$$$$V2.0)	512
CC(C)C[C@H](NC(=O)[C@H](CCCNC(=N)N)NC(=O)OCc1ccccc1)C(=O)N[C@H](CN)C(C)C	512
